Attribution: the supplement of paper PMC10338343

For each of the sequences below, state its pre-steady-state target cleavage rate.
Test system: MIWI (PIWIL1) piRISC loaded with Kctd7 piRNA (30 nt);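 further: 1 nM active piRISC with 0.1 nM target library at 33 °C single turnover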
METHOD_SUMMARY: pre-steady-state target cleavage rate (min^-1); higher = faster piRNA-guided slicing of the target
SETTINGS: guide: Kctd7 piRNA 5'p-UGUUAAUCUCUCAGAGAAGGUGACAGUGAU; auxiliary factor: 500 nM mouse GTSF1
Over roughly 6,600 sequences, “pre-steady-state target cleavage rate” has its median near 0.07; the highest 2% begin near 0.72. The list comes from a sample in which the highest values are over-represented; it also holds close analogues and randomly drawn sequences.
Give bare numbers.

// known answers, use as guide
>  <MACROMOLECULE_SEQUENCE>
UAGUGAGUCACCUUCUCUGAGAGAUUAUGA

>  <RESULT>
0.088

$$$$
>  <MACROMOLECULE_SEQUENCE>
UAGUGACAGACCUUCACUGAGAGUUUAACA

>  <RESULT>
0.0305

$$$$
>  <MACROMOLECULE_SEQUENCE>
UACACUCUCACCUUCUCUGAGUGAUUAACA

>  <RESULT>
0.0216

$$$$

Here's the next entry for you.
Input line: Specify measured pre-steady-state target cleavage rate for "UAGACUGUCACCUUCUCUCAGAGUUUAACA" .
Output line: 0.0473

====

Tested on: MIWI (PIWIL1) piRISC loaded with Kctd7 piRNA (30 nt);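 further: 1 nM active piRISC with 0.1 nM target library at 33 °C single turnover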
METHOD_SUMMARY: pre-steady-state target cleavage rate (min^-1); higher = faster piRNA-guided slicing of the target
SETTINGS: guide: Kctd7 piRNA 5'p-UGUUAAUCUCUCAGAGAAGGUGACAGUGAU; auxiliary factor: 500 nM mouse GTSF1
In all, about 6,600 sequences were measured (“pre-steady-state target cleavage rate”: median about 0.07, highest 2% from about 0.72 on). The entries come from a sample that favours the highest values as a whole.
Categories are defined by ranges of pre-steady-state target cleavage rate, namely band A: < 0.1; band B: ≥ 0.1 and < 0.7; band C: ≥ 0.7

Known results for sequences:
>  <MACROMOLECULE_SEQUENCE>
UAGUGACUCACGUUCUCUGAGAGUUUAACA

>  <LABEL>
band A

$$$$
>  <MACROMOLECULE_SEQUENCE>
AUCACUGUCACCUUCUCUGAGAGAUUUUGA

>  <LABEL>
band A

$$$$
>  <MACROMOLECULE_SEQUENCE>
AAUCACUGUCACCUUCUCUGAGAGAUUAACA

>  <LABEL>
band C

$$$$
>  <MACROMOLECULE_SEQUENCE>
UACUGUGUCACCUUCUCUGAGAGAUUAACA

>  <LABEL>
band B

$$$$
>  <MACROMOLECULE_SEQUENCE>
UAUACUGUCACCUUCUCUGAGAGAUUAACA

>  <LABEL>
band C

$$$$
>  <MACROMOLECULE_SEQUENCE>
UAGUGACAGACCUUCUCUGAGAGACUAACA

>  <LABEL>
band A

$$$$
>  <MACROMOLECULE_SEQUENCE>
UAGUCUGUCACCUUGUCUGAGAGAUUUUGA

>  <LABEL>
band B

$$$$
>  <MACROMOLECULE_SEQUENCE>
UACACUGUCACCUUCUGUGUGAGAUUAACA

>  <LABEL>
band A

$$$$

Input line: Hi there! Could you help me figure out the category for "UAGACUGUCACCUUUUCUGAGAGAUUAACA" please?
Output line: band C

Input line: Class label required: "UAGACACUCACCUUCUCUGAGAGAUUAUGA"
Output line: band B

Input line: Lab log: "UUCUACUGUCACCUUCUCUGAGAGAUUAACA" — assign pre-steady-state target cleavage rate category
Output line: band B

====

System: MIWI (PIWIL1) piRISC loaded with Kctd7 piRNA (30 nt);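 further: 1 nM active piRISC with 0.1 nM target library at 33 °C single turnover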
METHOD_SUMMARY: pre-steady-state target cleavage rate (min^-1); higher = faster piRNA-guided slicing of the target
SETTINGS: guide: Kctd7 piRNA 5'p-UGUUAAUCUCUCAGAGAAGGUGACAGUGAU; auxiliary factor: 500 nM mouse GTSF1
The full ranking holds about 6,600 sequences; the median of “pre-steady-state target cleavage rate” is about 0.07, and the highest 2% start at about 0.72. The sample as a whole holds a higher share of the highest values than the screen did.
Classification scheme (pre-steady-state target cleavage rate): lower range (below 0.05), middle range (0.05 to below 0.4), upper range (0.4 or more)

Please review the entries below; each comes with its answer.
>  <MACROMOLECULE_SEQUENCE>
UAGUGACAGACCCUUCUCUGAGAGAUUAACA

>  <LABEL>
middle range

$$$$
>  <MACROMOLECULE_SEQUENCE>
UAGUGACACAGCUUCUCUGAGAGAUUAUGA

>  <LABEL>
lower range

$$$$

Input line: # classify by pre-steady-state target cleavage rate band: "UAGUGUGUCACCUUCUCUGAAGAGAUUAACA"
Output line: lower range

Input line: Please let me know in which category the item "UAGUGACAGUCCUUCUCAGAGAGUUUAACA" belongs.
Output line: lower range

Input line: Would you mind sorting "UAGUGACAGUGCUUCGCUGAGAGAUUAACA" into the appropriate category?
Output line: lower range

Input line: Field: class (pre-steady-state target cleavage rate) — entry: "UAGUCUCUCACCUUCUCUGUGAGAUUAACA"
Output line: middle range

Input line: State the band of "UAGUGUGUGACCUUCUCUGUGAGAUUAACA"
Output line: middle range

Input line: Band assignment needed for "UAGUGAGUCACCUUGCUCUGAGAGAUUAACA" please.
Output line: middle range

Input line: Dear colleague, I would appreciate it if you could identify the bin for "UAGUCUGUCACCUUCUGUGAGAGAUAAACA" and reply at your convenience.
Output line: middle range

====

System: MIWI (PIWIL1) piRISC loaded with Kctd7 piRNA (30 nt);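 further: 1 nM active piRISC with 0.1 nM target library at 33 °C single turnover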
METHOD_SUMMARY: pre-steady-state target cleavage rate (min^-1); higher = faster piRNA-guided slicing of the target
SETTINGS: guide: Kctd7 piRNA 5'p-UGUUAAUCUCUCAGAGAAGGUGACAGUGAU; auxiliary factor: 500 nM mouse GTSF1
The full ranking holds about 6,600 sequences; the median of “pre-steady-state target cleavage rate” is about 0.07, and the highest 2% start at about 0.72. Shown is part of a subset that was picked to be rich in the highest values.
Provide the recorded pre-steady-state target cleavage rate for the entries that follow.
Answers are plain numbers.

For every item in the list below, what is its measured pre-steady-state target cleavage rate?
1. UUCUCUGUCAGCUUCUCUGAGAGAUUAACA
2. UUCUCUGUCACCUUCUCUGAGAGAUUAACA
3. UAGUGUGUCACCUACUCUGAGAGAUUAACA

Output line:
1. 0.586
2. 0.585
3. 0.598

====

Tested on: MIWI (PIWIL1) piRISC loaded with Kctd7 piRNA (30 nt);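 further: 1 nM active piRISC with 0.1 nM target library at 33 °C single turnover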
METHOD_SUMMARY: pre-steady-state target cleavage rate (min^-1); higher = faster piRNA-guided slicing of the target
SETTINGS: guide: Kctd7 piRNA 5'p-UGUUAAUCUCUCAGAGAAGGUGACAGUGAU; auxiliary factor: 500 nM mouse GTSF1
Whole data set: some 6,600 sequences, median “pre-steady-state target cleavage rate” near 0.07, cut for the highest 2% near 0.72. Shown is part of a subset that was picked to be rich in the highest values.
ATTRIBUTE_MEASURED: pre-steady-state target cleavage rate
Numbers only.

Before answering, review these 2 worked examples.
>  <MACROMOLECULE_SEQUENCE>
UUCACUGAUCACCUUCUCUGAGAGAUUAACA

>  <ATTRIBUTE_MEASURED>
pre-steady-state target cleavage rate

>  <RESULT>
0.653

$$$$
>  <MACROMOLECULE_SEQUENCE>
UAGACUGUCACCGUCUCUGAGAGAUUAACA

>  <ATTRIBUTE_MEASURED>
pre-steady-state target cleavage rate

>  <RESULT>
0.769

$$$$

We next turn to a different sequence, shown below.
Input line: For the sequence "UAGACUGUCAGCUUCUCUGAGAGAUUAUCA" , give its reported pre-steady-state target cleavage rate.
Output line: 0.171

====

System: MIWI (PIWIL1) piRISC loaded with Kctd7 piRNA (30 nt);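 further: 1 nM active piRISC with 0.1 nM target library at 33 °C single turnover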
METHOD_SUMMARY: pre-steady-state target cleavage rate (min^-1); MIWI and MILI are mouse PIWI proteins and EfPiwi is from a freshwater sponge; tags in brackets are library labels; higher = faster piRNA-guided slicing of the target;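 further: 1 nM active piRISC with 0.1 nM target library at 33 °C single turnover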
SETTINGS: guide: Kctd7 piRNA 5'p-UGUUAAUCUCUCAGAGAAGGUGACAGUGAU; auxiliary factor: 500 nM mouse GTSF1
Over roughly 6,600 sequences, “pre-steady-state target cleavage rate” has its median near 0.07; the highest 2% begin near 0.72. What follows is part of a selection rich in the highest values, with near analogues and random picks from the rest.
Please provide measured pre-steady-state target cleavage rate for the entries that follow.
Answers are plain numbers.

>  <MACROMOLECULE_SEQUENCE>
UACACUGUCACCUCUCUGAGAGAUUAACA

>  <pre-steady-state target cleavage rate>
0.5

$$$$
>  <MACROMOLECULE_SEQUENCE>
UAGUCUUUCACCUUCUCUGAGAGAUUAACA

>  <pre-steady-state target cleavage rate>
0.265

$$$$
>  <MACROMOLECULE_SEQUENCE>
UAGACUGUCACCUGCUCUGAGAGAUUAACA

>  <pre-steady-state target cleavage rate>
0.77

$$$$

Could you now look at the following sequence, please?
Input line: Name the value of pre-steady-state target cleavage rate reported for "AUCACUGUCACCUUCUCUGACAGAUUAUCA" when tested on MIWI (PIWIL1) piRISC loaded with Kctd7 piRNA (30 nt).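 Further: 1 nM active piRISC with 0.1 nM target library at 33 °C single turnover.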
Output line: 0.0262
